target or system: T1, TIGIT (T cell immunoreceptor with Ig and ITIM domains) (human, UniProt Q495A1 22-141, limits assumed)
T1 construct: also called hTIGIT; human TIGIT
T1 sequence (looked up): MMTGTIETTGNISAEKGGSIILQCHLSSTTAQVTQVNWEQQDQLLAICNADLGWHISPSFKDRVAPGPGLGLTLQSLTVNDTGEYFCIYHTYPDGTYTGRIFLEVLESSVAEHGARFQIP
assay method text: SPR, VHH-V5-His
readout: kon (M⁻¹ s⁻¹)

TIGIT-29-34 VHH-V5-His (VHH, not shown: V5-His tag) VHH: EVQLVESGGGLVQAGGSLRLSCAASGFTFRNYAMGWFRQAPGKEREFVSSISSSSSRTSYADSVKGRFTISADNAKNTVYLQMNSLKPEDTAVYYCAARLWGTWTAGDYDYWGQGTQVTVSS ... 30000
TIGIT-29-12 VHH-V5-His (VHH, not shown: V5-His tag) VHH: EVQLVESGGGLVQAGGSLRLSCAASGSTFSSYAMGWFRQAPGKEREFVAAITWSGTRTNYADSVKGRFTISADNAKNTVYLQMNSLKPEDTAVYYCAAAAWTIYTYDSWGQGTQVTVSS ... 10000

(A) TIGIT-30-49 VHH-V5-His (VHH, not shown: V5-His tag) VHH: EVQLVESGGGLVQAGGSLRLSCAASGNIFSRYIMGWFRQAPGKEREWVAGISNGGTTKYADSVKGRFTISADNAKNTVYLQMNSLKPEDTAVYYCAQGWKIVPTNWGQGTQVTVSS
(B) TIGIT-29-22 VHH-V5-His (VHH, not shown: V5-His tag) VHH: EVQLVESGGGLVQAGGSLRLSCAASGSILSSYTMGWFRQAPGKEREFVSTISRSSTRTYYADSVKGRFTISADNAKNTVYLQMNSLKPEDTAVYYCAARLWGTWTAGDYDYWGQGTQVTVSS
Prompt: kon comparison. Which is larger, A or B ? Respond using the label that marks the chosen record.
Completion: A
